- study_target: Streptokinase A (Streptococcus pyogenes serotype M1, UniProt P10520)
- Sequence (P10520 whole entry): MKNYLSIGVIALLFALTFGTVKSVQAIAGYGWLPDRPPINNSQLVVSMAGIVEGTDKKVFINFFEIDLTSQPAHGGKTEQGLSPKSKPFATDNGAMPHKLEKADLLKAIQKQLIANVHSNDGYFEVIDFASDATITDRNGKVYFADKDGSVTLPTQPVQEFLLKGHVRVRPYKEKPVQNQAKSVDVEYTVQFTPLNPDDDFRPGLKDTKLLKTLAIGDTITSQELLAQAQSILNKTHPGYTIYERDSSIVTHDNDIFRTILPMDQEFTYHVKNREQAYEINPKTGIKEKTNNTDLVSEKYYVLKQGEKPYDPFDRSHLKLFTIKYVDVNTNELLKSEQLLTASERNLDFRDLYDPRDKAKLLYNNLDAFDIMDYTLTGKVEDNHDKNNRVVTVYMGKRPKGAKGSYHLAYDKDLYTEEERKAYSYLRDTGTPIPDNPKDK
- protocol_summary: S. pyogenes streptokinase expression inhibitors, potency, dose response, plasminogen activation absorbance, OD405 (AID 1914);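 note: secreted streptokinase activity via plasminogen activation per viability signal from cell pellet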
- Type: functional, Streptococcus pyogenes M1 GAS
Calls of active or inactive are those of the source. Cut-off read from the data, not from the text of the source: actives have a measured EC50 and inactives only a lower limit.
# EC50 per record follows

Look over these answered cases.
compound | obs_value
Cc1cc(C)cc(NC(S)=NCCSc2ccc(Cl)cc2)c1 | 15.9 µM (active)
COc1cccc(NC(=O)Nc2nc(SC(C)(C)C)ns2)c1 | 9.69 µM (active)
Cc1ccc(C(=O)N2CCCC(CCC(=O)NCc3ccccc3F)C2)cn1 (stereo unspecified) | > 150 µM (not active)
C/C(=N\NC(=S)Nc1cccc(C)c1)c1cc2ccccc2o1 | > 150 µM (not active)
Cc1cccc(NS(=O)(=O)c2ccc(C3CCCCC3)cc2)c1 | 5.02 µM (active)

Output EC50 of Nc1ccc(-c2ccc(N)cc2C(F)(F)F)c(C(F)(F)F)c1
76.8 µM (active)
